Measurement target: androgen receptor (Homo sapiens)
Sequence (P10275 1-920): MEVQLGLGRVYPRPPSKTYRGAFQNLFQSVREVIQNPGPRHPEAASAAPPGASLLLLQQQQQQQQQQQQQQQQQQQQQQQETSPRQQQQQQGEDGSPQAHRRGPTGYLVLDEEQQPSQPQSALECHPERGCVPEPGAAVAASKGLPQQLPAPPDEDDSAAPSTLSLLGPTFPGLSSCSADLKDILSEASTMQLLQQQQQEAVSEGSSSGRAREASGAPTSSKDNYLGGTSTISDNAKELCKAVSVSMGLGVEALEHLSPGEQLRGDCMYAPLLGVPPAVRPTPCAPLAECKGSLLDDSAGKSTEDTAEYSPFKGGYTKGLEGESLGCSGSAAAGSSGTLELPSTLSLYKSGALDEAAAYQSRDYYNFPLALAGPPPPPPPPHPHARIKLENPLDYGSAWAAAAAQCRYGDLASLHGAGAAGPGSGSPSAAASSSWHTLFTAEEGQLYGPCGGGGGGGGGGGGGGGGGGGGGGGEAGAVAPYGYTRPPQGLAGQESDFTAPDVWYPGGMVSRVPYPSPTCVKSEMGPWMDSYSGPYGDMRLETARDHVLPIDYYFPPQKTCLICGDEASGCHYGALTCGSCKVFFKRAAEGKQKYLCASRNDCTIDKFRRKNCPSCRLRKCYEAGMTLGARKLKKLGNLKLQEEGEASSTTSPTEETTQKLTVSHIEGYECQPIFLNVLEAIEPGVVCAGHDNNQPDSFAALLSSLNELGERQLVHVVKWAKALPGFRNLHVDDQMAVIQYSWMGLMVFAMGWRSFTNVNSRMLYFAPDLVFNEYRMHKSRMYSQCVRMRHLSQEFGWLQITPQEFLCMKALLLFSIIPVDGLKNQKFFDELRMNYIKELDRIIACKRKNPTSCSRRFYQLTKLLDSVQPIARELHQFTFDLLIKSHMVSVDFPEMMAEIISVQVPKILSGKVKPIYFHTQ
Test details: Yeast two-hybrid screening of unbiased X15 peptide library, ligand induced β-galactosidase activity (FIG. 3, Table 503)
Type: cell-based
Set-up: expressed in transfected cells; host or cells: Saccharomyces cerevisiae PJ69-4α; unit not given here
Conditions: yeast two-hybrid, ligand CPA
Each record is given yes (1) if its reported ligand induced β-galactosidase activity, CPA is strictly below 0.4. Records at or above 0.4 are given no (0).

[
  {
    "Substance": "EFQQCMCAEVKSWLGGSLDLQPS* [B8E9]",
    "Category label": "no (0)"
  },
  {
    "Substance": "EFPELLAMTRWGRHAALLEPQRLPPPRTTTQPQTEFERMFFFTRPMRTTGLLDLQPS [B2A7]",
    "Category label": "yes (1)"
  },
  {
    "Substance": "EFRFPFHEMVREWESMGLERVRYAEP [M4D1]",
    "Category label": "yes (1)"
  },
  {
    "Substance": "EFRQSFVSEILGGGWLPLDLOPS [M2H3]",
    "Category label": "no (0)"
  },
  {
    "Substance": "EFRSSVFEQMYLCTGGSLDLQPS* [B5G11]",
    "Category label": "no (0)"
  }
]

====

Measurement target: androgen receptor (Homo sapiens, UniProt P10275)
Type: cell-based
Set-up: expressed in transfected cells
Conditions: mammalian two-hybrid, Huh-7 cells, ligand MPA
From the text: We used a mammalian two-hybrid system to determine specificities of the AR-binding peptides previously identified, through screening of the aforementioned yeast library, as ligand-dependent in their binding activity. Ligand was provided to the cells so the interaction could be observed. The human hepatoma cell line, Huh-7, was used as the recipient of two-hybrid vectors, pM and pVP16 (Clontech) (FIGS. 6A and 6B), containing fusions with peptide and AR, respectively. […]
Entries annotated with measured luciferase normalized to β-galactosidase, MPA
Measurement label: luciferase normalized to β-galactosidase, MPA

[
  {
    "Substance": "EFHSRLRVEVVSWGIGSTCSQANSGRISYDL* [B8H3]",
    "Reported result": 11.33
  },
  {
    "Substance": "EFQQCMCAEVKSWLGGSLDLQPS* [B8E9]",
    "Reported result": 18.51
  },
  {
    "Substance": "HPTHSSRLWELLMEATPTM [D30]",
    "Reported result": 15.62
  },
  {
    "Substance": "EFRSSVFEQMYLCTGGSLDLQPS* [B5G11]",
    "Reported result": 8.029
  }
]
